# System: Alternaria solani
# assay notes: In vitro test Alternaria solani (early blight of tomato/potato), radial growth on Potato Dextrose Agar
# Format: cell-based
# setup conditions: 168 h, agar plate, 25° C., seven days, read-out: control compared to the untreated check
quantity kind: inhibition of growth at 300 ppm

### Prompt Field request: inhibition of growth at 300 ppm | item: CCN(C)C=Nc1cc(C)c(S(=O)(CC)=Nc2cccc(OC(F)(F)F)c2)cc1Cl (centres unmarked)
### Response > 70%

### Prompt Field request: inhibition of growth at 300 ppm | item: CCN(C)C=Nc1cc(C)c(S(=O)(CC(C)C)=NCc2cccc(C(F)(F)F)c2)cc1Cl (centres unmarked)
### Response > 70%

### Prompt Field request: inhibition of growth at 300 ppm | item: CCN(C)C=Nc1cc(C)c(Cc2ccc(S(C)(=O)=NCC3CC3)cc2)cc1C (centres unmarked)
### Response > 70%

### Prompt Field request: inhibition of growth at 300 ppm | item: CCN=S(C)(=O)c1cccc(Nc2cc(C)c(N=CN(C)CC)cc2C)c1 (centres unmarked)
### Response > 70%

### Prompt Field request: inhibition of growth at 300 ppm | item: CCN(C)C=Nc1cc(C)c(S(=O)(CC)=NC(=O)c2cccc(F)c2)cc1Cl (centres unmarked)
### Response > 70%

### Prompt Field request: inhibition of growth at 300 ppm | item: CCN(C)C=Nc1cc(C)c(S(=O)(CC(C)C)=Nc2ccc(OC)c(OC)c2)cc1Cl (centres unmarked)
### Response > 70%

### Prompt Field request: inhibition of growth at 300 ppm | item: CCN(C)C=Nc1cc(C)c(S(=O)(CC)=NC(=O)c2cccc(C(F)(F)F)c2)cc1Cl (centres unmarked)
### Response > 70%

### Prompt Field request: inhibition of growth at 300 ppm | item: CCN(C)C=Nc1cc(C)c(S(C)(=O)=NCc2cccc(Cl)c2)cc1Cl (centres unmarked)
### Response > 70%
